test system: Leishmania donovani; experiment: Leishmania intramacrophage assay; assay type: functional, organism-based; parameters: scale not given: in the data most compounds retested in dose-response had high values; conditions: 30.3 µM; […]
About 1,000 (1.4%) of roughly 69,000 compounds showed an effect of 50% or more. Shown is part of a subset that was picked to be rich in strong results.
# label = T if Percent Effect < 10% else F

CCSc1ccc(C(=O)N2CCCC2C(=O)N2CCOCC2)cn1 (stereo unspecified) = T

Req: Consider `COc1ccc(S(=O)(=O)N2CCC[C@@H]3CN(C(=O)C4CC4)C[C@@H]32)cc1F` . Does its Percent Effect lie strictly below 10%?
Resp: T

Req: What do you have for `CCc1cc(N2CCC(NCc3ccc(C)o3)CC2)ncn1` ?
Resp: F
